- Tested target: Corticotropin-releasing factor receptor 2/Corticotropin-releasing factor-binding protein (Homo sapiens, UniProt P24387+Q13324)
- Sequence (Q13324 whole entry): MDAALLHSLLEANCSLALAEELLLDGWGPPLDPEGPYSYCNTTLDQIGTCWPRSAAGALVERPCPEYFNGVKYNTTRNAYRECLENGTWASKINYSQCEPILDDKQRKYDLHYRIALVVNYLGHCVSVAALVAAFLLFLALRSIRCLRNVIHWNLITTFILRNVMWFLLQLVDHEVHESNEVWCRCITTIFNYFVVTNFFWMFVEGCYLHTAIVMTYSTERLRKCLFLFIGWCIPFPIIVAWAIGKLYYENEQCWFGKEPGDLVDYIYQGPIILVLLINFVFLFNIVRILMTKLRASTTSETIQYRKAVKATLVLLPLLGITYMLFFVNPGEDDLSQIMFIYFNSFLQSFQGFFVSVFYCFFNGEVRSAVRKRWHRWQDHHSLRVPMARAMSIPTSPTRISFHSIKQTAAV
- Sequence (P24387 whole entry): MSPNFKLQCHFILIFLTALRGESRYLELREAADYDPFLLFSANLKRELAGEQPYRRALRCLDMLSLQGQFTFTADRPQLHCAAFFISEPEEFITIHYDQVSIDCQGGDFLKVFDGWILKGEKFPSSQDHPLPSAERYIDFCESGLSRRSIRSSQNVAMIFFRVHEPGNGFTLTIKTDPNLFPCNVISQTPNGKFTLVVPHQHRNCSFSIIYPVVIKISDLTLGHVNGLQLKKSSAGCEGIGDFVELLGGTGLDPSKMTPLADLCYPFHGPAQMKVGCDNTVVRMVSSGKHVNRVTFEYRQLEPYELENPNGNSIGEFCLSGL
- Experiment summary: Dose Response confirmation of uHTS hits for small molecule antagonists of the CRF-binding protein and CRF-R2 receptor complex.
- Type: functional
- Assay context: read-out: IC50_Mean
Activity calls are given as the source filed them.
Choose one outcome from this list and give only that: label 1 = active, label 0 = inactive

The examples below pair each entry with its known result.
[[record]]
compound = "COC(=O)c1ccc(CSc2nc3ccccc3c(=O)n2-c2ccccc2)o1"
class_label = "label 1"

[[record]]
compound = "Cc1cc(OC(=O)c2cccs2)c2c3c(c(=O)oc2c1)CCCC3"
class_label = "label 1"

[[record]]
compound = "Cc1ccc(N2CCN(C(=O)CN3C(=O)c4ccccc4C3=O)CC2)cc1"
class_label = "label 0"

[[record]]
compound = "Cc1c(NC2=C(Cl)C(=O)N(c3ccccc3Cl)C2=O)c(=O)n(-c2ccccc2)n1C"
class_label = "label 0"

[[record]]
compound = "COc1cccc(NC(=S)C(C#N)=C2N(C)c3ccccc3N2C)c1"
class_label = "label 0"

[[record]]
compound = "CCn1c(SCC(=O)NC2CC2)nnc1-c1ccncc1"
class_label = "label 0"

[[record]]
compound = "O=C(CCn1nnc2ccccc21)N1CCN(c2ccccc2)CC1"
class_label = "label 0"

[[record]]
compound = "O=C(NC(=O)c1ccccc1O)c1ccc(C(F)(F)F)cc1"
class_label = "label 1"


Can you look up the reported call for CCOC(=O)c1ccc(/N=c2\sc(C(=O)OC)cc(=O)n2CCCN2CCOCC2)cc1 for me?
label 1

---

- Tested target: Luciferin 4-monooxygenase (Photinus pyralis, UniProt P08659)
- Sequence (P08659 whole entry): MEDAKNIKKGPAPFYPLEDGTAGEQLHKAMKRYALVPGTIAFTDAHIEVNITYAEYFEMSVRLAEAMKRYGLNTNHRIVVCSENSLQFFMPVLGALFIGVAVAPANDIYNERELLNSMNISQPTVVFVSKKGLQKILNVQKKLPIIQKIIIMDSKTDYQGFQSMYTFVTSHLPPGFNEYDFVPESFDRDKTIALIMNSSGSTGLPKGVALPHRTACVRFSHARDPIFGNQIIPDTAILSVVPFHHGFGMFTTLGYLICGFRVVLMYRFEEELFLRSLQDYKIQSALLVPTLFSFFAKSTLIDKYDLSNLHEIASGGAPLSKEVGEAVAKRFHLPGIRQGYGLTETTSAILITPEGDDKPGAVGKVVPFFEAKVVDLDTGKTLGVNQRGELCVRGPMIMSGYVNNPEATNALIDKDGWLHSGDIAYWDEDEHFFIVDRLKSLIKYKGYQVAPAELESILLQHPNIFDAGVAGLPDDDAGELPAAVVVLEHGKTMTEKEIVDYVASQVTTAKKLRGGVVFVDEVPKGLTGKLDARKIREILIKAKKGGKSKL
- Experiment summary: inhibition of purified Photinus pyralis luciferase – biochemical, luminescence, dose response (AID 1891)
Activity calls are given as the source filed them.
What EC50 was measured for each of the following?

[[record]]
smiles_code = "CN(C)c1ccc(N=Nc2nc3ccccc3n2C)cc1"
outcome_measure = "EC50"
measurement = "213 nM (active)"

[[record]]
smiles_code = "CCN1C=CC(=C2C(=O)c3ccccc3C2=O)C=C1"
outcome_measure = "EC50"
measurement = "1850 nM (active)"


// sample CCOC(=O)C1CCN(C(=O)Cn2nc(C)n3c(cc4cc(F)ccc43)c2=O)CC1 , its EC50 was > 112000 nM (not active)

---

- Experiment summary: Luminescence Cell-Based Dose Confirmation HTS to Identify Inhibitors of Platelet Dense Granule Release. [Related pubchem assays: 1663 (Primary HTS), 1678 (Summary of Project)]
- Assay type: functional
The source made the active and inactive calls.
Assign EC50 to each entry below.

[[record]]
smiles_code = "CCN1C=CC(=C2C(=O)c3ccccc3C2=O)C=C1"
measurement = "6.3 µM (active)"

[[record]]
smiles_code = "O=C(c1ccco1)N1CCN(C(=O)c2ccc(COc3ccc(F)cc3)o2)CC1"
measurement = "> 112 µM (not active)"

[[record]]
smiles_code = "CN(C)c1ccc(N=Nc2nc3ccccc3n2C)cc1"
measurement = "0.208 µM (active)"

[[record]]
smiles_code = "COc1ccc(Br)cc1/C=N/n1c(C)nnc1C"
measurement = "> 112 µM (not active)"


Turning now to a further compound:
Query N/N=C(\Cc1cscn1)c1ccc(O)cc1O yields EC50 of 62.6 µM (active)

---

- Tested on: H4
- Experiment summary: Luminescence Cell-Based Dose Response HTS to Identify Activators of 5'UTR Stem-Loop Driven Prion Protein mRNA Translation in H4 Neuroglioblastoma Cells. [Related pubchem assays: 1829 (Project Summary), 1814 (Primary HTS)]
- Format: functional
- Assay context: Homo sapiens
The source made the active and inactive calls.
Would you kindly list EC50 for each of these molecules?

[[record]]
molecule = "CCC(/C=C1\\Sc2ccc3ccccc3c2N1C)=C\\c1sc2ccc3ccccc3c2[n+]1C"
outcome_measure = "EC50"
measurement = "> 120 µM (not active)"

[[record]]
molecule = "CCOc1ccc(-c2c(=O)n(OCc3ccc([N+](=O)[O-])cc3)c3ccccc3[n+]2[O-])cc1"
outcome_measure = "EC50"
measurement = "> 120 µM (not active)"

[[record]]
molecule = "Cc1ccc(-n2nc(C)c3c2OC(N)=C(C#N)C3c2ccc(F)cc2)cc1 (stereo not given)"
outcome_measure = "EC50"
measurement = "> 120 µM (not active)"


# batch size: 2; output EC50 per entry
1. O=C1C(/C=N/CCCN2CCCC2=O)=C(O)c2ccccc21
2. Cc1c(C(=O)OCC(=O)N2C(C)CCCC2C)oc2ccccc12 (stereo not given)

1: 12.9 µM (active); 2: 72.9 µM (active)

---

- Tested target: Sentrin-specific protease 8 (Homo sapiens)
- Sequence (Q96LD8 whole entry): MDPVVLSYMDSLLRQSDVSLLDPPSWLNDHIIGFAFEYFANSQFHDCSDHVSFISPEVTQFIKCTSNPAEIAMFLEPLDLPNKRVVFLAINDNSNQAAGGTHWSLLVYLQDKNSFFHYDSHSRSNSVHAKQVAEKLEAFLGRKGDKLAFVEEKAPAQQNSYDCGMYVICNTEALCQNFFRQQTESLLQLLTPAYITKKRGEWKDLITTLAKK
- Assay type: functional
Activity calls are given as the source filed them.
Field 'call' accepts active, inactive

Check out these entries, answers already filled in.
[[record]]
compound = "COc1cccc(N/C([S-])=C(/C(=O)c2ccc(OC(F)F)cc2)[n+]2ccccc2)c1"
class_label = "active"

[[record]]
compound = "O=C1Cc2ccccc2C(=O)N1Cc1cccc(Cl)c1"
class_label = "inactive"

[[record]]
compound = "O=C(Nc1ccc(Cl)cc1)c1ccc(CN2CCc3ccccc3C2)cc1"
class_label = "inactive"

[[record]]
compound = "O=C(COC(=O)c1ccc([N+](=O)[O-])o1)NC1CCS(=O)(=O)C1 (configuration not stated)"
class_label = "active"

[[record]]
compound = "COC(=O)c1ccc(C)cc1C1CN=NC12Cc1cc(C)ccc1C2=O (configuration not stated)"
class_label = "active"


Lab log entry: CC1=CC2(O)OCCN(CCO)C2=CC1=O (configuration not stated) — outcome as called in the assay?
inactive

Please share the test call associated with O=C(COC(=O)c1ccc([N+](=O)[O-])s1)NCCc1ccccc1 .
active

---

- Experiment summary: viability of uninfected HEp-2 cells – cell-based, HTS, cytotoxicity control for RSV inhibitor project, dose response (AID 2410)
- Type: functional
- Assay context: human respiratory syncytial virus
Active and inactive are the calls of the source.
Please provide measured CC50 for the entries that follow.

In the examples that follow, each entry is paired with its recorded CC50.
[[record]]
compound = "O=C1CN(C(=O)CSc2nc3cc(Cl)ccc3c(=O)n2Cc2ccccc2)c2ccccc2N1"
measurement = "46.4 µM (active)"

[[record]]
compound = "O=C(CNc1cccc(C(F)(F)F)c1)N/N=C/c1cn(-c2ccccc2)nc1-c1ccccc1"
measurement = "> 50 µM (active)"

[[record]]
compound = "CN1C(=O)C(CC(=O)Nc2ccccc2F)N(NC(=O)c2ccc(Br)cc2)C1=S (centres undefined)"
measurement = "6.39 µM (active)"


So for O=c1cc(-c2ccccc2Cl)oc2c(NS(=O)(=O)c3ccccc3C(F)(F)F)ccc(O)c12 , the logged CC50 turned out to be 48.5 µM (active)

---

Can you tell me EC50 for the items I'm about to list?
- Test system: Streptococcus
- Experiment summary: GAS UMAA2166 growth inhibition – luminescence, BacTiterGlo, counter-screen for streptokinase expression inhibitor project, dose response (AID 1915);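 note: potency for reduction of bacterial viability or growth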
- Format: functional, organism-based
Calls of active or inactive are those of the source.

[[record]]
molecule = "Nc1nonc1-n1nnc(C(=O)N/N=C/c2cc(Cl)ccc2O)c1CN1CCCCCC1"
outcome_measure = "EC50"
measurement = "20.4 µM (active)"

[[record]]
molecule = "COc1cc(C)c(C(=O)CC(=O)c2c(C)cc(OC)cc2C)c(C)c1"
outcome_measure = "EC50"
measurement = "> 150 µM (not active)"


Go through the items and report each one's EC50.
1. Cc1ccc(C(=O)N2CCOCC2)cc1S(=O)(=O)N1CCOCC1
2. CCC(N=C(S)NC1CCCCC1)c1ccc(C(C)C)cc1 (stereo unspecified)

1: > 150 µM (not active); 2: 82 µM (active)

State recorded EC50 for all listed molecules.
1. C=CCN1C(=O)NC(=O)/C(=C(/CC)Nc2ccc(N(CC)CC)cc2)C1=O
2. Cc1ccc(NC(S)=NC2CCSc3ccccc32)cc1C (stereo unspecified)

1. 2.03 µM (active)
2. > 150 µM (not active)
